Where these numbers come from: patent US20230027929A1

# testedOn: hMrgpMRGPRX2 (Homo sapiens)
# Construct: expressed in transfected cells
# Sequence (Q96LB1 1-330): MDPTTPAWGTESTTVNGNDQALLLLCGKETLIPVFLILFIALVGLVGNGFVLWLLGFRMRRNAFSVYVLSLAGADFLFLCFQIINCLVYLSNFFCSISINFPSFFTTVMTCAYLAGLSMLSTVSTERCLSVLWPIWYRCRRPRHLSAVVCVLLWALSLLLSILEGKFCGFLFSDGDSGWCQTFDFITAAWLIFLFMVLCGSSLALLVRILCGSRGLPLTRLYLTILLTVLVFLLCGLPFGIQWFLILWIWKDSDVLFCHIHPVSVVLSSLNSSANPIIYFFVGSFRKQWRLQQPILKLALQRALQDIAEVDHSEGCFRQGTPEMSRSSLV
# measurementNotes: FLIPR intracellular calcium mobilization, antagonist activity in recombinant hMrgpMRGPRX2 expressing cells
# Type: cell-based
# measurementSetup: read-out: Human MrgprX2 Antagonist pIC50 (converted)
// log10 IC50 lookup, one value per entry
Please note: log10 values; quantity IC50; unit nM.

CC1(C)C(C(=O)Nc2ccc(C3CCOC3)cn2)C1(C)C (stereo not drawn)	2.27

Any idea what its log10 IC50 is? The molecule is CC1(C)C(C(=O)Nc2ccc(-c3ccon3)cn2)C1(C)C
1.09

Any idea what its log10 IC50 is? The molecule is CC1(C)C(C(=O)Nc2ccc(Oc3cncc(F)c3)cn2)C1(C)C
0.30

Any idea what its log10 IC50 is? The molecule is CC(C)C(=O)Nc1cnc(Oc2cc(F)cc(F)c2)cn1
2.50

Any idea what its log10 IC50 is? The molecule is C[C@@H]1C[C@@H]1C(=O)Nc1ccc(Oc2ccc(F)c(F)c2)cn1
1.20

Any idea what its log10 IC50 is? The molecule is CC1(C)C(C(=O)Nc2ccc(I)cn2)C1(C)C
1.17

Any idea what its log10 IC50 is? The molecule is O=C(CC1CCOCC1)Nc1ccc(Oc2ccc(F)c(F)c2)cn1
3.90

Any idea what its log10 IC50 is? The molecule is CCN(C[C@@H](O)C(F)(F)F)C(=O)Nc1cc(Oc2cccc(C#N)c2)ccn1
3.19

Any idea what its log10 IC50 is? The molecule is Cc1nc(NC(=O)N(C)C[C@@H](O)C(F)(F)F)ccc1Oc1ccc(F)c(F)c1
2.85
